Each recorded value in this set is attributed to patent US20240109962A1.

# Kd listing for each entry below
- target or system: LILRB2 antigen of the ELISA of Table 5 (format not specified) (UniProt Q8N423 22-460, limits assumed)
- Sequence (Q8N423 22-460 limits assumed): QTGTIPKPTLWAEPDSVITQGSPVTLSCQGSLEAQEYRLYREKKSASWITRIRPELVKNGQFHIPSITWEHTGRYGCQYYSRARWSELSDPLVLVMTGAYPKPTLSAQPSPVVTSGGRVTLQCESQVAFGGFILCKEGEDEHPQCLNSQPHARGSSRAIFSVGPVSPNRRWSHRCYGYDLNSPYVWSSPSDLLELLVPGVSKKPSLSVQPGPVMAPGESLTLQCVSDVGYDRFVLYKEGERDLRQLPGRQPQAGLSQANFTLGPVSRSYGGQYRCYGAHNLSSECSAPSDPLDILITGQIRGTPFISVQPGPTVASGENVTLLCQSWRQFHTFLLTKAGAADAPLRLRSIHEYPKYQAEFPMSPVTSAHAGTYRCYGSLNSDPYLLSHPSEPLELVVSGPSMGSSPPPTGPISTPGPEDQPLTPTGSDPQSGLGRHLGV
- method summary: ELISA, antibody titration
Please reply with the bare figure in nM and do not write the unit itself.

>>> data_value("Antibody 12D8 (antibody, V domains shown, Mouse hybridoma mAb purified from ascites) VH: QVQLRQSGPGLVQPSQSLSITCTVSGFSLTSYGVHWVRQSPGKGLEWLGVIWSGGITDYNAAFISRLSISKDNSKSQVFFRMNSLQTNDTAIYYCAREIYGNPDYWGQGTTLTVSS VL: DIVMTQSHKFMSTSVGDRVSITCKASQDVSIAVAWFQQKPGQSPKLLIYSASYRYTGVPDRFSGSGSGTDFTFTISSVQAEDLAVYYCQQHYSTPRTFGGGTKLEIK")
4.37

**Q:** Consider the binder shown here: Antibody 11B12 (antibody, V domains shown, Mouse hybridoma mAb purified from ascites) VH: DVQLQESGPGLVKPSQSLSLTCSVTGYSITSGYYWNWIRQFPGNKLEWMGYISYDGNNNYNPSLKNRISITRDTSKNQFFLKLNSVTTEDTATYYCAREESTMITTAWFAYWGQGTLVTVSA VL: DIQMTQSPASLSVSVGETVTITCRASENIYSNLAWYQQKQGKSPQLLVYGATNLADGVPSRFSGSGSGTQYSLKINSLQSEDFGSYFCQHFWDTPYTFGGGTKLEIK What is its recorded Kd?
**A:** 3.2
